I'd appreciate it if you could supply IC50 values for the items below.
- assayed target: recombinant human Polq polymerase domain (residues 1792-2590) (Homo sapiens, UniProt O75417)
- Sequence (O75417 1792-2590): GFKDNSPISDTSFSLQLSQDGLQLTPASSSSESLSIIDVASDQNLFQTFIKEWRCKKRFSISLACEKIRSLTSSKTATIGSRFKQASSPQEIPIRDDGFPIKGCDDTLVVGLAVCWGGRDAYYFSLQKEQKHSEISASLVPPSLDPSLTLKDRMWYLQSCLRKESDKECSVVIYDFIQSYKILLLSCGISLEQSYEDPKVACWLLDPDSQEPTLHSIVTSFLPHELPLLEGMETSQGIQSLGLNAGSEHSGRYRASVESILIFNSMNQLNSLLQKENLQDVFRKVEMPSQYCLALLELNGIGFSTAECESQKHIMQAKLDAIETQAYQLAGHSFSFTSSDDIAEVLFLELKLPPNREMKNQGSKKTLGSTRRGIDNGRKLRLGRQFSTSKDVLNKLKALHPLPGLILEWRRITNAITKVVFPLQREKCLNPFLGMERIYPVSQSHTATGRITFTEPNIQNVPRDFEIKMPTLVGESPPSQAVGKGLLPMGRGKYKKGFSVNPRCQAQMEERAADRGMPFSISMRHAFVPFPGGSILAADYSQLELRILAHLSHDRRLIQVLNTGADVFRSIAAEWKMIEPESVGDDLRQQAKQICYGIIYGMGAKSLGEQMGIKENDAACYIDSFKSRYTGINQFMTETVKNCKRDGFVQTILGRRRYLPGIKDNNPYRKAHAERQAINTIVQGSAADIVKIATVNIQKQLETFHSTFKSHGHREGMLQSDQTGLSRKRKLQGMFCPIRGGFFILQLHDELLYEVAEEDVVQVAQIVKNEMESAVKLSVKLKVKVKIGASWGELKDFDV
- experiment notes: Cy5 fluorescence assay of Polq polymerase enzymatic activity
- Format: biochemical
- measurement conditions: Polq IC50, 5 nM Polq polymerase domain, 60 nM primer-template, 50 uM dNTPs, 37° C., 18 min, 2.5% DMSO, triplicate
Answers are plain numbers, in nM.

Would you please look over these solved cases?
molecule=[2H]C([2H])([2H])N(C(=O)Oc1c(-n2cc[nH]c2=O)cc(C(F)(F)F)cc1C(F)(F)F)c1ccc(F)cc1 result_number=2.9
molecule="CN(C(=O)Oc1c(-c2cn(CCOCC(=O)Nc3cccc4c3C(=O)N(C3CCC(=O)NC3=O)C4=O)nn2)cc(C(F)(F)F)cc1C(F)(F)F)c1ccc(F)cc1 (stereo not drawn)" result_number=4.6

Give me IC50 for each of these molecules, listed below.
1. [2H]C([2H])([2H])N(C(=O)Oc1c(-c2cn(C3C[C@@H](O)[C@@H](O)C3)nn2)cc(C(F)(F)F)cc1C(F)(F)F)c1ccc(F)cc1 (mixture of isomers) [Example 13]
2. CN(C(=O)Oc1c(-c2cn(CCCCCCCCC(=O)Nc3cccc4c3C(=O)N(C3CCC(=O)NC3=O)C4=O)nn2)cc(C(F)(F)F)cc1C(F)(F)F)c1ccc(F)cc1 (stereo not drawn)
3. CN(C(=O)Oc1c(-n2cc[nH]c2=O)cc(C(F)(F)F)cc1C(F)(F)F)c1ccc(F)cc1
4. CN(C(=O)Oc1c(-c2cn(CCOCCOCC(=O)Nc3cccc4c3C(=O)N(C3CCC(=O)NC3=O)C4=O)nn2)cc(C(F)(F)F)cc1C(F)(F)F)c1ccc(F)cc1 (stereo not drawn)

[4.6, 5.8, 4, 4]
